Data origin: the supplement of paper PMC6555819

Test system: THRa homodimer (NR concentration 90 nM)
assay: PBM binding z-score (relative to random genomic background probes); higher = stronger binding; sequences stand for … in GC…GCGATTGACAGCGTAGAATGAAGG
Answer Not satisfied if PBM binding z-score is under 1, and Satisfied if it is 1 or more.

Ask: Form field: PBM binding z-score at least 1? Entry: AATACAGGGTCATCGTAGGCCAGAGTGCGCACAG
Reply: Satisfied

Ask: Does the sequence GCTTACGGGTCAAAGGTTATATCATGAATAGAAT have recorded PBM binding z-score that is 1 or more?
Reply: Not satisfied

Ask: Exam item: decide whether the reported PBM binding z-score for TCATATAGGTAAAGGCGAAAGTCGAACGATATGA is at least 1.
Reply: Not satisfied

Ask: Decide: is the reported value of PBM binding z-score for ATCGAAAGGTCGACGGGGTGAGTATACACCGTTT equal to or greater than 1?
Reply: Not satisfied

Ask: Answer whether PBM binding z-score of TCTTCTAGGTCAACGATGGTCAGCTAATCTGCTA is greater than or equal to 1.
Reply: Satisfied

Ask: Confirm if PBM binding z-score reported for the sequence ATATCTAGGTTAGCTGGGGTCATTCAGACTAGGC is 1 or above.
Reply: Satisfied

---

Tested on: RXRa DBDmut IVT, anti-RXR (DBD mutation: RXRa K156A/R161A, NR concentration 90 nM)
assay: PBM binding z-score (relative to random genomic background probes); higher = stronger binding; sequences stand for … in GC…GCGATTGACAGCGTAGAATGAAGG
reported.property: PBM binding z-score

The sequence identified as TCATATAGGTAAAGGTTAAAGTCGAACGATATGA registered its PBM binding z-score at 1.27

Entry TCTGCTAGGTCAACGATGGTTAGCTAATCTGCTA — recorded PBM binding z-score = 1.1

Memo: CCTACTGGGCCATTCAGAGGTCATGGATCATATG , reported PBM binding z-score: 0.21

Query TCTATTAGTTGAAGGACAACCGACGAGTCCGTTT yields PBM binding z-score of 2.05

Per the records, this sequence ( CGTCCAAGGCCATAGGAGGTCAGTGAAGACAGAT ) has PBM binding z-score equal to 0.911

Entry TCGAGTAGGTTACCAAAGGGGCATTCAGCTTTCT ; PBM binding z-score = 0.44

The recorded PBM binding z-score for entry AATGCAGGGTCATCGTAGGCCAGAGTACGCACAG equals 3.37

Note to self: PBM binding z-score recorded for TCTGACAGGTGAAGGTAACTCAGGTACGCAGTCG was 0.827

Consider ATCAAAAGGTCGACGAGGTGAGTATACACCGTTT . Its measured PBM binding z-score is 1.52

According to the records, this sequence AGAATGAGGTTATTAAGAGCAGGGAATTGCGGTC displays PBM binding z-score of 2.01

The value of PBM binding z-score measured for the sequence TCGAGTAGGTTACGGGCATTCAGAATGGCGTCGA turned out to be -0.00223

CCTCGGAGGACAACAGGAAGTCAGAGCTGCCAGA yielded PBM binding z-score of 0.139

Lab book: PBM binding z-score of TTACCATGGTGAGCTGAGGTCGTTGATCCAACTC noted as -0.0297

Value of PBM binding z-score reported for the sequence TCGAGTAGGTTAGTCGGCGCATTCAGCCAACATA is -0.0124

Consider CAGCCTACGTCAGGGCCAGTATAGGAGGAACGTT . Its measured PBM binding z-score is -0.885

Measured PBM binding z-score of GATACAGGGTCAAGGCCATAGTACGCGTATTGAT : 2.44

Data point: CCTAGCAGGCGAATCTGGGTCACTCAAGGCTTGA ; PBM binding z-score = 0.0113

Entry CAAACTAGGTCACGGGAAGGTCAAAGTCCGCATG , PBM binding z-score reported as 2.31

What the record says about TCTAGCAGGCCAGAGGATCACTCAAGAGGTACGG : PBM binding z-score is -0.0121

Form: sequence = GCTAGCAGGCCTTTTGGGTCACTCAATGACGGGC ; PBM binding z-score = -0.579

Entry under test: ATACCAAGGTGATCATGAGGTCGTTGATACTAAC . Its PBM binding z-score was 1.08

The recorded PBM binding z-score for entry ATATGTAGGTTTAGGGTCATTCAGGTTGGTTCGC equals 2.74

What the record says about ACTATTAGTTGAGACGAGGGCAACCGATAGGTTG : PBM binding z-score is 0.5

Data point: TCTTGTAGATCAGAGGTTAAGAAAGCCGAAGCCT ; PBM binding z-score = 0.653

The sequence listed as GCTGCTAGTTCAGGTTGGTCAGCTAACGGGTACG shows PBM binding z-score equal to 1.19

The sequence listed as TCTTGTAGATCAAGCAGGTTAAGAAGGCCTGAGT has a reported PBM binding z-score of 0.295
